MIC values by entry
Test system: Escherichia coli
test_protocol: Inhibition of NDM-1/CMY-6/OXA-1 in Escherichia coli CDC-0055 assessed as meropenem antibacterial activity at 4 ug/ml after 16 to 20 hrs by CLSI-based microbroth dilution method (reference value: […] ug/ml)

>>> value_reported("CC(=O)N[C@H]1Cc2cccc(C(=O)O)c2OB1O")
"16 µg/mL"

[Q] Entry C[C@]1(Cn2ccnn2)[C@H](C(=O)O)N2C(=O)C[C@H]2S1(=O)=O has what MIC?
[A] > 16 µg/mL

[Q] // same read-out, input: NC(=O)[C@@H]1CC[C@@H]2CN1C(=O)N2OS(=O)(=O)O
[A] 8 µg/mL

[Q] NCc1ccc(CC(=O)N[C@H]2Cc3cccc(C(=O)O)c3OB2O)cc1 ?
[A] 1 µg/mL
